Infectivity enhancing N fold at 1.3 µM listing for selected compounds.
# Tested on: HIV-1;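 also: TZM-bl reporter cells exposed to HIV-1 with peptide fibrils, infection read out as β-galactosidase luminescence, compared with virus alone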
# condition details: relative to virus only
Where a SMILES comes first, the peptide text is derived from it. The star is where a group is joined. Palmitoyl = CCCCCCCCCCCCCCCC(=O)*
API: value field is a number in N fold; no unit string.

Example entries begin here.
CCCCCCCCCCCCCCCC(=O)N[C@@H](C)C(=O)N[C@H](C(=O)N[C@@H](C)C(=O)N[C@@H](CCCCN)C(=O)N[C@@H](CCCCN)C(=O)N[C@@H](CCCCN)C(N)=O)C(C)C [Pat21, C16-AVAKKK-NH2] (Palmitoyl-AVAKKK-NH2)
2
CCCCCCCCCCCCCCCC(=O)N[C@@H](CCCNC(=N)N)C(=O)N[C@@H](CCCNC(=N)N)C(=O)N[C@@H](Cc1c[nH]c2ccccc12)C(=O)N[C@@H](CCC(N)=O)C(=O)N[C@@H](Cc1c[nH]c2ccccc12)C(=O)N[C@@H](CCCNC(=N)N)C(N)=O [Pat22, C16-RRWQWR-NH2] (Palmitoyl-RRWQWR-NH2)
0
CCCCCCCCCCCCCCCC(=O)N[C@@H](C)C(=O)NCC(=O)NCC(=O)N[C@@H](CCCNC(=N)N)C(=O)N[C@H](C(=O)N[C@@H](CCCCN)C(N)=O)C(C)C [Pat18, C16-AGGRVK-NH2] (Palmitoyl-AGGRVK-NH2)
3

Now let's try a different one.
Ask | May I ask what Infectivity enhancing N fold at 1.3 µM has been recorded for CCCCCCCCCCCCCCCC(=O)NCC(=O)N[C@@H](CCCCN)C(=O)N[C@H](C(=O)NCC(=O)N[C@@H](CO)C(=O)N[C@@H](CCCCN)C(N)=O)C(C)C [Pat30, C16-GKVGSK-NH2] (Palmitoyl-GKVGSK-NH2) ?
Reply | 2
